FYI, the data here is from PubChem BioAssay AID1159580.

measurement protocol: chemical genetic growth profiling, strain panel (AID 1159580);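 further: tested at 20 µM; growth read once vehicle control cultures reached saturation at 30 °C; 1 = growth at the plate median or of vehicle wells; lower values mean less growth of the strain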
test settings: S. cerevisiae deletion strains, growth OD, locus YPR167C, strain met16, active compounds read low
Among all 5,500 compounds or so, about 2,000 (36%) were called active. About 18% were inconclusive and are not listed. The list shows a part of the results.
Reported values of normalized growth for individual entries

// below: answered compounds
COc1cc2c(cc1OC)C(=O)C(CC1CCN(Cc3ccccc3)CC1)C2 (stereo unspecified) | 0.984 (inactive)
CC(=O)OCC(CCn1cnc2cnc(N)nc21)COC(C)=O | 0.962 (inactive)
NC(=O)N1c2ccccc2CC(=O)c2ccccc21 | 0.979 (inactive)
CCC1(c2ccc(N)cc2)CCC(=O)NC1=O (stereo unspecified) | 0.997 (inactive)

Exercise: Please give measured normalized growth of the following entry: "OCCN(CCO)c1nc(N2CCCCC2)c2nc(N(CCO)CCO)nc(N3CCCCC3)c2n1"
Solution: 0.996 (inactive)

Exercise: For the compound "C[CH2][Hg][S]c1ccccc1C(=O)O" , give its measured normalized growth value.
Solution: 0.0597 (active)

Exercise: Identify measured normalized growth associated with CCC1(C)CC(=O)NC1=O (stereo unspecified)
Solution: 1.02 (inactive)

Exercise: Find the measured normalized growth of CCC(C(N)=O)c1ccccc1 (stereo unspecified) and report it.
Solution: 0.999 (inactive)

Exercise: Identify normalized growth associated with the compound C=C1CC[C@H](O)C/C1=C/C=C1\CCC[C@]2(C)C([C@H](C)/C=C/[C@H](C)C(C)C)CC[C@@H]12 (stereo partly specified)
Solution: 0.985 (inactive)

Exercise: Write down normalized growth measured for item CC1(C)C2CC[C@]3(C)C(C(=O)C=C4[C@H]5C[C@@](C)(C(=O)O)CC[C@]5(C)CC[C@]43C)[C@@]2(C)CC[C@@H]1O (stereo partly specified)
Solution: 1.02 (inactive)

Exercise: Give the reported value of normalized growth for this record: "NC(N)=NOCC[C@H](N)C(=O)O"
Solution: 0.985 (inactive)
